Listed below: kon values for each entry.
Target: T1, cynomolgus monkey BCMA (cynomolgus monkey, UniProt A0A2K5UD97 1-53)
T1 construct: Soluble analyte in SPR; construct not described; also called cyBCMA; Cyno BCMA
T1 sequence (A0A2K5UD97 entry or part of it): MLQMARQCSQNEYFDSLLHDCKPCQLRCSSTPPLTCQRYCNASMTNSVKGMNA
Assay: SPR, IgG on chip, cyBCMA analyte, 37C
Give just the numeric value; M⁻¹ s⁻¹ need not be written.

BINDER	UNIT_TAG	kon
L3.PY/L3.KF/H2.QL (antibody, V domains shown, IgG) VH: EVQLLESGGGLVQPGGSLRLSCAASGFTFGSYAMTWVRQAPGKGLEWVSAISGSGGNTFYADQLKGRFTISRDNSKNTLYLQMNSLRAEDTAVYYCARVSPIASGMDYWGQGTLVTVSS VL: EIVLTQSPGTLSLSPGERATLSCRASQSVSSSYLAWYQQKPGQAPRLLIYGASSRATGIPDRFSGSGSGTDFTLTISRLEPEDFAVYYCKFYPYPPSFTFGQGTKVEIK	M⁻¹ s⁻¹	1.42e+06
L3.PY/L3.KY/H2.LT (antibody, V domains shown, IgG) VH: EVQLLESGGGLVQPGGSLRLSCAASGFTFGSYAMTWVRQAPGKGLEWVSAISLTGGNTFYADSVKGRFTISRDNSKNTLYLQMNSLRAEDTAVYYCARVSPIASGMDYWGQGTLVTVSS VL: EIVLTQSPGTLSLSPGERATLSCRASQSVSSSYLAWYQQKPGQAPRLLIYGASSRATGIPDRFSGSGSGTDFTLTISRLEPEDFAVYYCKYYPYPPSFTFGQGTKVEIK	M⁻¹ s⁻¹	1.82e+06

Next binder, please.
Task item: Tell us which kon value is on record for L3.PY/L1.FF/H2.DY (antibody, V domains shown, IgG) VH: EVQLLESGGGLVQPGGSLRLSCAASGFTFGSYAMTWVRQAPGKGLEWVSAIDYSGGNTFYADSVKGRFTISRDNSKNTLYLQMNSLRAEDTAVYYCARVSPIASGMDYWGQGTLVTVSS VL: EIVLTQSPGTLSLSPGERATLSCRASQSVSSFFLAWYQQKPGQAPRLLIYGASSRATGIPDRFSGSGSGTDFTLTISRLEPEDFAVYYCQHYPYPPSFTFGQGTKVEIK
Reply: 2.66e+06
